// provenance: patent US20230355622A1

What pEC50 was measured for each of the following?
system: parasite; assay: Parasite LDH growth assay (Parasite Assay), antiparasite potency; type: cell-based; details: parasite LDH growth assay, ring stage parasites, 72 hours incubation at 37° C.; read-out: EC50
Interpret pEC50 as the negative base-10 log of the concentration measured in mol/L.

The reported pEC50 of the compound CCC1(CC)CC(=O)N([C@H]2c3cc(C(=O)N[C@@H]4c5ccccc5OC(C)(C)[C@H]4O)ccc3OCC2OC)C(=N)N1 (stereo partly drawn) [Example 67B] was 9.10

The reported pEC50 of the compound CCC1(CC)CC(=O)N([C@@H]2CC(C)(C)Oc3ccc(C(=O)N[C@@H]4c5cc(F)ccc5OC(C)(C)[C@H]4O)cc32)C(=N)N1 [Example 53A] was 9.52

The reported pEC50 of the compound CCC1(CC)CC(=O)N([C@H]2c3cc(C(=O)N[C@H]4CC(C)(C)Oc5ccccc54)ccc3OC2(C)COC)C(=N)N1 (stereo partly drawn) [Example 74A] was 9.52

The reported pEC50 of the compound "CCC1(CC)CC(=O)N([C@@H]2CCS(=O)(=O)c3ccc(C(=O)N[C@H]4CC(C)(C)Oc5ccccc54)cc32)C(=N)N1" was 9.22

The reported pEC50 of the compound CCC1(CC)CC(=O)N([C@@H]2CCOc3ccc(C(=O)NC4c5ccccc5OCC4O)cc32)C(=N)N1 (stereo partly drawn) was 8.00

The reported pEC50 of the compound CCC1(CC)CC(=O)N([C@@H]2CCOc3ccc(C(=O)NC4c5ccccc5OC(C)(C)C4(C)O)cc32)C(=N)N1 (stereo partly drawn) [Example 242A] was 9.22
